Recorded values, source ChEMBL document CHEMBL2040714.

target: Multidrug resistance-associated protein 1 (Homo sapiens, UniProt P33527); assay: Reversal of MRP1-mediated drug resistant in human 2008/MRP1 cells assessed as potentiation of doxorubicin-induced cytotoxicity at 1 uM after 5 days by MTS assay; assay type: cell-based; conditions: 2008/mrp1, 120 h
Sequence (P33527 whole entry): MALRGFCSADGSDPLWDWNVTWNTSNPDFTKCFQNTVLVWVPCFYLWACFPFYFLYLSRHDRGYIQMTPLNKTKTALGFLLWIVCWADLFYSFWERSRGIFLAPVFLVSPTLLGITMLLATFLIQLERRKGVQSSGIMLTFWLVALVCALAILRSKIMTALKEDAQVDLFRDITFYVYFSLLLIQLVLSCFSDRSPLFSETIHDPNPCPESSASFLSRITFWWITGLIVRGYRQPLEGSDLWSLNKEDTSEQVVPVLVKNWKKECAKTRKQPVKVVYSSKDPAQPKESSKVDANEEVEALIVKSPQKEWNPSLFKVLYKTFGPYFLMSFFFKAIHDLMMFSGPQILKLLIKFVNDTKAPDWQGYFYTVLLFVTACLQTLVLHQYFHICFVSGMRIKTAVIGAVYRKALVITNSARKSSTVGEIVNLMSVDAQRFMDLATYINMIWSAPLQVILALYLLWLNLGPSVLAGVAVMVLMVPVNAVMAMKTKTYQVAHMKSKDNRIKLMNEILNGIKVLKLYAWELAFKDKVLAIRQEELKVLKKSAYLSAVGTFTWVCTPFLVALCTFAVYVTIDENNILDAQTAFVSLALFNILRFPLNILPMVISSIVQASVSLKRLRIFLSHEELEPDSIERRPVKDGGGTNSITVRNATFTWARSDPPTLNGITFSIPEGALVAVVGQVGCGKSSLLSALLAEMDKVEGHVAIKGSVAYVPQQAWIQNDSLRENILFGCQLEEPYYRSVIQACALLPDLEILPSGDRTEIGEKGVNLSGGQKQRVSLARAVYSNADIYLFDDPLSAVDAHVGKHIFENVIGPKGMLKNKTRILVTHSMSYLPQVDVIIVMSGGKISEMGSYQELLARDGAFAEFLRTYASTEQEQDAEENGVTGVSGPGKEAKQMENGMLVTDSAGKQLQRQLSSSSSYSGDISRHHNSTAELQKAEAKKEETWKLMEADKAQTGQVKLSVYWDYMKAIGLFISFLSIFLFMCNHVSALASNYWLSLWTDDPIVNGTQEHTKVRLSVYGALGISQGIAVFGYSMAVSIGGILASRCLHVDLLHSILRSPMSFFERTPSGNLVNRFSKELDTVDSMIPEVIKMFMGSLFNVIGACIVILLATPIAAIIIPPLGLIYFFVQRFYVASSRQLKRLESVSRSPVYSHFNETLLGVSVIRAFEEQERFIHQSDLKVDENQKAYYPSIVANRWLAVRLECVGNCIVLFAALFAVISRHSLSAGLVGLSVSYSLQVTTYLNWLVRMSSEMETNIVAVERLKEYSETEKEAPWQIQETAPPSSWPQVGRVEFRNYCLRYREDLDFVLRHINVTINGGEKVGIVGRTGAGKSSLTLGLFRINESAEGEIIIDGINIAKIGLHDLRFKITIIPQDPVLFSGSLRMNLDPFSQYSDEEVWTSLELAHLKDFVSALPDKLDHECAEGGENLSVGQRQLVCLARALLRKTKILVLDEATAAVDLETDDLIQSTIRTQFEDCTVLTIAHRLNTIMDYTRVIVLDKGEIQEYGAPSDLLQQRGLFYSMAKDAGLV
Respond with t for fold change (FC) values of 1 and above, f for values below.

# example entries with known answers
mol: COc1cc(OC)c2c(=O)c(OC)c(-c3ccc(OC)c(OC)c3)oc2c1
assaySystem: Multidrug resistance-associated protein 1 (Homo sapiens, UniProt P33527)
answerLabel: f
--
mol: COc1cc(O)c2c(=O)c(OC)c(-c3ccc(OC)c(OC)c3)oc2c1
assaySystem: Multidrug resistance-associated protein 1 (Homo sapiens, UniProt P33527)
answerLabel: f
--
mol: COc1cc(OC)c2c(=O)c(OCCOC(=O)c3cc(OC)c(OC)c(OC)c3)c(-c3ccc(OC)c(OC)c3)oc2c1
assaySystem: Multidrug resistance-associated protein 1 (Homo sapiens, UniProt P33527)
answerLabel: t
--
mol: COc1cc(OC)c2c(=O)c(OCCOC(=O)/C=C/c3cc(OC)c(OC)c(OC)c3)c(-c3ccc(OC)c(OC)c3)oc2c1
assaySystem: Multidrug resistance-associated protein 1 (Homo sapiens, UniProt P33527)
answerLabel: t
--
mol: COc1cc(OC)c2c(=O)c(OCCOC(=O)c3ccc(OC)c(OC)c3)c(-c3ccc(OC)c(OC)c3)oc2c1
assaySystem: Multidrug resistance-associated protein 1 (Homo sapiens, UniProt P33527)
answerLabel: t

Entry COc1ccc(C(=O)OCCOc2c(-c3ccc(OC)c(OC)c3)oc3cc(OC)cc(OC)c3c2=O)cc1 : is its fold change (FC) no less than 1?
t

Entry COc1cc(OC)c2c(=O)c(OCC(=O)c3ccc(OC)c(OC)c3)c(-c3ccc(OC)c(OC)c3)oc2c1 : is its fold change (FC) no less than 1?
f

###

target: Broad substrate specificity ATP-binding cassette transporter ABCG2 (Homo sapiens, UniProt Q9UNQ0); test: Reversal of BCRP-mediated drug resistant in human HEK293/R2 cells assessed as potentiation of topotecan-induced cytotoxicity at 1 uM after 5 days by MTS assay; assay type: cell-based; conditions: hek293/r2, 120 h
Sequence (Q9UNQ0 whole entry): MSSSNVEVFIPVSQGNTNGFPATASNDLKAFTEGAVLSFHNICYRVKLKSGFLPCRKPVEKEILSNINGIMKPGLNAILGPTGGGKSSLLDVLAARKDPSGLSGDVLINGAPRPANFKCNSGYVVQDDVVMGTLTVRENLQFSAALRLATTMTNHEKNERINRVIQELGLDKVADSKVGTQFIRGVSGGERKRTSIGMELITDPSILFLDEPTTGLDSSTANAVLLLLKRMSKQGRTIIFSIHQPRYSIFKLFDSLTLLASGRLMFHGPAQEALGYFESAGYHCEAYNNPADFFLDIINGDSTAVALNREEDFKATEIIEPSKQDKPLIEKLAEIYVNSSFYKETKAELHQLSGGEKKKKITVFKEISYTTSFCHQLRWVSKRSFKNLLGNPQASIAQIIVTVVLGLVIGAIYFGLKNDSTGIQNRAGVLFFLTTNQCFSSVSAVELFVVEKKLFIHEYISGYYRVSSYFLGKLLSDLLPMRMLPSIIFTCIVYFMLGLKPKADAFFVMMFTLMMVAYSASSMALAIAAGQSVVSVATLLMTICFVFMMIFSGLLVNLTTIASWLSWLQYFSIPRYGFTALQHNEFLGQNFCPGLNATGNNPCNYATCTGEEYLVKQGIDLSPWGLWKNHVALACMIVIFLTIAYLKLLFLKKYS
Threshold check on fold change (FC): strictly below 5 is yes (1); on or above 5 is no (0).

# example entries with known answers
compound: COc1cc(O)c2c(=O)c(OC)c(-c3ccc(OC)c(OC)c3)oc2c1 [RETUSIN]
answerLabel: no (0)
--
compound: COc1cc(OC)c2c(=O)c(O[C@@H]3O[C@H](CO[C@@H]4O[C@@H](C)[C@H](OC)[C@@H](OC)[C@H]4OC)[C@@H](OC)[C@H](OC)[C@H]3OC)c(-c3ccc(OC)c(OC)c3)oc2c1
answerLabel: yes (1)
--
compound: COc1cc(OC)c2c(=O)c(O)c(-c3ccc(OC)c(OC)c3)oc2c1
answerLabel: yes (1)
--
compound: COc1cc(OC)c2c(=O)c(OCCn3cnc4c(N)ncnc43)c(-c3ccc(OC)c(OC)c3)oc2c1
answerLabel: yes (1)
--
compound: COc1cc(OC)c2c(=O)c(OCC(=O)c3ccc(OC)c(OC)c3)c(-c3ccc(OC)c(OC)c3)oc2c1
answerLabel: yes (1)

// switching to the query compound
Lab log: compare recorded fold change (FC) with 5; is it strictly lower for COc1cc(OC)c2c(=O)c(OC(=O)c3cc(OC)c(OC)c(OC)c3)c(-c3ccc(OC)c(OC)c3)oc2c1 ?
no (0)
